Test system: SEM cells
Experiment: cell viability relative to DMSO control; higher = less cytotoxic
Details: RPMI 5 mM glucose + 10% dialyzed FBS; 48 h; 0.0632 µM
The entries below come with measured cell viability values attached.
Response body: numeric value in %, unit text excluded.

Sample records with cell viability:
- CC1(C)CCC[C@]2(C)[C@H]3CC(=O)O[C@]3(C)CC[C@@H]12: 104
- C=CC(=O)Nc1cccc(Oc2nc(Nc3ccc(N4CCN(C)CC4)cc3)ncc2Cl)c1: 128
- Cc1cn2c(-c3cn[nH]c3)cnc2c(Nc2ccc(C(=O)N3CCNCC3)cc2F)n1: 122
- CC\1=C(C(\N=C(/N1)C2=CC(=NC=C2)Cl)C3=C(F)C=C(Cl)C=C3)/C(=O)NC4=C(F)C=C5[NH]N=CC5=C4 (stereo not drawn): 102
- CC1CCC(C(=O)N(c2cc(C#CC(C)(C)C)sc2C(=O)O)C2CCC(O)CC2)CC1 (stereo not drawn): 90.3

Q: Which cell viability value belongs to OC(=O)C1=CC=C(NC2=NC3=C(C\N=C(/C4=CC(=CC=C34)Cl)C5=C(F)C=CC=C5F)C=N2)C=C1 ?
A: 90.8

Q: Which cell viability value belongs to Cc1nc(NC(=O)N2CCC[C@H]2C(N)=O)sc1-c1ccnc(C(C)(C)C(F)(F)F)c1 ?
A: 85.7

Q: Which cell viability value belongs to COC1=CC=CC=C1C2=CC=CC(=C2)C/3=C(O)/C4=CC(=C(Cl)C=C4NC3=O)C#N ?
A: 93.4
